Origin of measurements: patent US20230346777A1

Experiment: Pharmacokinetic parameters following intravenous and oral administration in rats
Assay type: in vivo, male Wistar rats
Details: male, Wistar, rat, plasma, iv, intravenous administration, read-out: MRT
Protocol: B-2. Determination of Pharmacokinetic Parameters Following Intravenous and Oral Administration The pharmacokinetic parameters of the compounds according to the invention were determined in male Wistar rats and/or in female beagles and/or in cynomolgus monkeys and/or in male CD-1 mice. […] Since the substance quantification was performed in plasma, it was necessary to determine the blood/plasma distribution of the substance in order to be able to adjust the pharmacokinetic parameters correspondingly. […]
Counter-ions that a name gives are not always drawn.
Each item that follows carries a reported MRT.

Compound	MRT [h]
O=C(O)c1cnn(C2CCCN(c3cc(Cl)ccc3-c3ccc(N4CCN(CC(F)(F)F)CC4)cc3)C2)c1C(F)F (single isomer, unassigned)	4.41
CC(C)CN1CCN(c2ccc(-c3ccc(Cl)cc3N3CCCC(n4ncc(C(=O)O)c4C(F)(F)F)C3)cc2)CC1 (single isomer, unassigned) [Example 9, hydrochloride]	5.83
CCCN1CCN(c2ccc(-c3ccc(Cl)cc3N3CCCC(n4ncc(C(=O)O)c4C(F)F)C3)cc2)CC1 (single isomer, unassigned) [Example 4, hydrochloride]	2.62
CC(C)CN1CCN(c2ccc(-c3ccc(Cl)cc3N3CCC[C@@H](n4ncc(C(=O)O)c4C(F)F)C3)cc2)CC1 (single isomer, unassigned)	3.44
